assay: yeast display, Sf9 membrane polyspecificity reagent, FACS + sequencing; frameworks hold sequencing errors
test readout: polyreactivity (PSR sort gate)

polymer_sequence=QVQLVESGGGLVQAGGSLRFSCAASGITFRRYAMGWYRQAPGKERELVASISRGGSTYYADSVKGRFTISRDNAKNTVYLQMNSLKPEDTAVYYCAADVAWRYDYWGQGTQVNVSS test_readout="polyreactivity (PSR sort gate)" value_observed="high polyreactivity"
polymer_sequence=QVQLVESGGGLVQAGGSLRLICAASGSIFGYNAMGWYRQAPGKERELVAAIRISTDNTYYADSVKGRFTISRDNAKNTVYLQMNSLKPEDTAVYYCAASSQTQYGDNYWGQGTQVTVSS test_readout="polyreactivity (PSR sort gate)" value_observed="high polyreactivity"

---

assay: yeast display, Sf9 membrane polyspecificity reagent, FACS + sequencing; frameworks hold sequencing errors
test readout: polyreactivity (PSR sort gate)

Worked set:
polymer_sequence=QVQLVESGGGLVQAGGSLRLSCAASGGTFYRYAMGWYRQAPGNERELVAAISSSGGRTYYADSVKGRFTISRDNAKNTVYVQMNSLKPEDTAVYYCNARYPRLHRTYNYWGQGTQVTVSS value_observed="high polyreactivity"
polymer_sequence=QVQLVESGGGLVQAGGSLRLSCAASGRIFGGYAMGWYRQAPGKERELVAVITDGGSTNYADSVKRRFTISRDNAKNTVYLQMNSLKPEDTAVYYCAADSDGDEPPYDYWGQGTQVTVSS value_observed="low polyreactivity"
polymer_sequence=QVQLVESAGGLVQAGGSLRLSCAASGRIFPYYAMGWYRQAPGKERELVAAITTDGGGTYYADSVKGRFTISRDNSKNTVYLQMNSMKPEDTAVYYCAVPSYQWYDPENYWGQGTQVTVSS value_observed="low polyreactivity"
polymer_sequence=QVQLVESGGGLVQAGGSLRLSCAASGFTFYTYAMGWYRQAPGKERELVAAINRSGGRTFYADSVKGRFTISRDNAKNTDYLQMNSLKPEDTAVYYCAADSRPYVGGMDYWGQGTQVTVSS value_observed="high polyreactivity"

(Q) Name the recorded polyreactivity (PSR sort gate) for RVQLQESGGGLVQAGGSLRLSCAASGTIFIRGDMGWYRQAPGKEREFVASIDTGSNTYYADSEKGRFTISRDNAKNAVYLQMNCLKPGDTAVYYCVVDYQLSGRLRYWGQGTQVTLSS .
(A) low polyreactivity

---

assay: yeast display, Sf9 membrane polyspecificity reagent, FACS + sequencing; frameworks hold sequencing errors
test readout: polyreactivity (PSR sort gate)

polymer_sequence=QVQLVESGGGLVQAGGSLRLSCAASGRIFWPYTMGGYRQAPGKETELVAVITYSGGSTYYADSVKGRFTISRDNAKNTVYLQMNSLIPEDTEVYYCNAGIRFYLHAHGYYWGQGTQVTVSS test_readout="polyreactivity (PSR sort gate)" value_observed="high polyreactivity"
polymer_sequence=QDQLVESGGGLVQAGGSLRLTCAASGITFYRYAMGWYRQAPGKERELVAAITSGGRTNYADSVKGRFTISRDNAKNTVYLQMNSMKPEDTAVYYCGARLVRESEPLGYWGQGTQVTVSS test_readout="polyreactivity (PSR sort gate)" value_observed="high polyreactivity"

---

assay: yeast display, Sf9 membrane polyspecificity reagent, FACS + sequencing; frameworks hold sequencing errors
test readout: polyreactivity (PSR sort gate)

Look over these answered cases.
polymer_sequence=QVQLVESGGGLVHAGGSLRLSCAASGSIFAANAMGWYRQAPGKERELVAAISSSGDITYYADSVKGRFTISRDNAKNSVFLQMNSLKPEDTAVYYCAARRYPYHEDNYWGQGTQVTVSS value_observed="high polyreactivity"
polymer_sequence=QVQLVESGGGLVQAGGSLRLSCAASGSTFVAYAMGWYRHAPGKERELVADISTSDGSTRYADSVKGRFTISSDNAKNTVYLQMISLKPEDTAVYYCGAGSEYYSYGGVRFSFYYWGQGTQVTVSS value_observed="low polyreactivity"
polymer_sequence=PVQLVESGGVLVQAGGSLRLSCAASGRTFSYYAMGWYRQAPGKERELVADNNCSGTSTDYADSVKGRFTISRDNAKNTVYLQMHSLKPEDTEVYYCPAYLIVYYGDETPYASLHDYWGQGTQVSVSS value_observed="low polyreactivity"
polymer_sequence=QVQLVESGGGLVQAGGSLRLSCAASGSTFYYYARGWYRQAPGKERELVATITSGASTNYADSVKGRFTISRDNAKNTVYLQMNSLKPEDTAVYYCNAVSLTSYLPWSSYDYWGQGTQVTVSS value_observed="low polyreactivity"
polymer_sequence=QVQLVESGGGLVQAGGSLRLTCAASGSIFRYYAMGWYRQAPGKERELVATISSGGRTYYADSVKGRFTISRDNAKNTVYLQMNSLKPEDTAVYYCAAVRLTWTAKYNYWGQGTQVTVSS value_observed="high polyreactivity"
polymer_sequence=QVQLVESGGGLVQAGGSLRLSCAASGSTFSVYGMGWYRQAPGKERELVAAITRGSRTYYADSVKGRFTISRDNAKNTVYLQMNSLKPEDTAVYYSAAKWWWRSYWGQGTQVTVSS value_observed="high polyreactivity"

(Q) Sample QVQLVESGVGLVQAGGSLRLSCAASGFILTAYDMGWYRQAPGKERELVAAIDWIGGSTYYADSVKGRFTISRDNAKNTVYLQMNSLKPEDTAVYYCAARFYSYVYRLDYWGQGTQVTVSS — what was its polyreactivity (PSR sort gate)?
(A) low polyreactivity

(Q) Reported polyreactivity (PSR sort gate) for QVQLVESGVGLVQAGGSLRLSCAASGIIFYDNALGWYRQAPGKERELVAAITDSGGTTYYADSVKGRFTISRDNAKNTVYLEMNSLKPEDNAVYYCAAETTATHGFAYDYWGQGTQVTVSS : what is it?
(A) low polyreactivity

(Q) # get_value(readout='polyreactivity (PSR sort gate)', item= QVQLVESGGGLVQAGRSLRLSCAASGYTFSRYTMGWYRQAPGKEWELVAAISSSGGSTYADSVKGRFTISRDNAKNTVYLQMTSLKPEDTGVYYCNRYYRRATKVGDWGQGTQVTVSS )
(A) high polyreactivity

(Q) Any idea what polyreactivity (PSR sort gate) was measured for QVQLVESGGGLVQAGGSLRLSCAASGRIFDSNAMGWYRQAPGTEREFVAAITYSSGSTYYRNSVKGRFTISRDNAKNTVYLQMNSLKPEDTAVYYCAAVLYWRTLSSRYDYWGQGTQVTVSS ?
(A) high polyreactivity

(Q) What value of measured polyreactivity (PSR sort gate) is listed for QVQLVESGGGLVQAGGSLRLSCAASGRTFAHNAMGWYRQAPGKERELVAAITWSGGTTYYADSVKGRFTISRDNAKNTVYLHMNSLKPEDTAVYYCNTYSYQPDPKYDYWGQGTQVTVSS ?
(A) low polyreactivity

(Q) Please look up its polyreactivity (PSR sort gate): QVQLVESGGGLVQAGGSLRLSCAASGRIFYPYAMGLYRQAPGKEREFVADISSAGSTYYADSVKGRFTISRDNAKNTVYLQMNSLKPEDTAVYYCAADRTSGAYYFRFLYDRDYWGQGTQVTVSS
(A) low polyreactivity

(Q) # lookup: polyreactivity (PSR sort gate) of QVQLVESGGGLVQAGGSLRLSCAASGFTFGRYAMGWYRQAPGKEREFVAAITWSGGGTYYADSVKGRFTISRDNAKNTVYLQMNSLKPEDTAVYYCAADRRAYGGGYWGQRTQVTVSS
(A) high polyreactivity

(Q) Sample QVQLVESGGCLVQAGGSLRLSCAASGSIFGAYVMGWYRQAPGKERELVAAITRRGGSTYYADSVKGRFTISRDNAKNTVYLQMNSLKPEDTAVYYCAARRGAGDGYWGQGTQVTVSS — what was its polyreactivity (PSR sort gate)?
(A) high polyreactivity

(Q) Query (sequence): QVQLVESGGGLVQAGGSLRLSCAASGRIFVSNAMGWYRQAPGKERELVAGITWTSGSTYYADSVKGRFTISRDNAKNTVYLQMNSLKPEDTAVYYCAAEYCYGNAFDYWGQGTQVTVSS ; field requested: polyreactivity (PSR sort gate)
(A) low polyreactivity

(Q) What measured polyreactivity (PSR sort gate) goes with QGQRVESGGGLVQAGGSLRLSCAASGRIFTQYAMGWYRQAPGKARELVAASNASDGSTYADSVKGRFTISRDNAKNTVYIQINSLKPEDTAVYYCNVTGGPYDFTRWSEFDHWGQGTHVTVSS ?
(A) low polyreactivity

(Q) So what's the measured polyreactivity (PSR sort gate) for this one? QVQLVESGGGLVQAGGSLRLSCAASGRIFTFYAMGWYRQAPGKERELVAAITSGGSTYYADSVKGRFTISRDNAKNTVYLQMNSLKPEDTAVYYCNALHHTQHDYWGQGTQVTVSS
(A) low polyreactivity

(Q) Quick check: polyreactivity (PSR sort gate) of QVQRVESGGGLVQAGGSLRLSCAASGFIFKDNAMGWYRQARGKERELVAVISGTGGRTNSADSVKGRFTISRDNAKNTVYLQMNSLKPEDTAVYYCAAEGYYTSTYDLYDYYYWGQGTQVTVSS ?
(A) low polyreactivity

(Q) Which polyreactivity (PSR sort gate) value belongs to QVQLVESGGGLVQAGGSLRLSCAASGLIFSWNAMGWYRQAPGKERELVASISYSGGRTYYADSVKGRFTISRDNAKNTVYLQMNSLKPEDTAVYYCAADTNATTDPEMDYWGQGTQVTVSS ?
(A) low polyreactivity

(Q) Request the reported polyreactivity (PSR sort gate) associated with QVQLVESGGGLVQAGGSLRLSCAASGFTFTDYAMGWYRQAPGKERELVAAISGIGGSTYYADSVKGRFTISRDNAKNTVYLQMNSLKPEDTAVYYCAAELTKWRFWGLHDSWGQGTQVTVSS
(A) high polyreactivity

(Q) Given QVQLVESGGGLVQAGGSLRLSCAASGLIFWYYAMGWYRQAPGKERELVAVITRSDASTYYADSVKGRFTISRDNAKNTVYVQMNSLKPEDTAVYYCAAYIRYGYSPWGYDYWGQGTQVSVSS , state its recorded polyreactivity (PSR sort gate).
(A) low polyreactivity

Attribution: the nanobody polyreactivity screen of Harvey et al. (2022)
